GI50 values, listed per item
# System: MALME-3M melanoma
# PROTOCOL: NCI tumour cell line growth inhibition, 48 h
MEASUREMENT TYPE: GI50

NC1=NC(c2ccc(Cl)cc2)C2=C(N1)/C(=C/c1ccc(Cl)cc1)CCC2 (configuration not stated) ... 19.4 µM
O=C(Nc1ccccc1O)c1ccc(Oc2cccc(C(=O)Nc3ccccc3O)c2)cc1 ... 1.48 µM
COc1cc2c[n+](C)c3c4ccccc4ccc3c2cc1OC (tested in a mixture with another compound) ... 1.28 µM
CCN(CCCl)CCCNc1c2ccccc2nc2ccc(OC)cc12 ... 754 µM
C=CCC1(O)c2cccc(NCCO)c2C(=O)c2c(NCCO)cccc21 ... > 100 µM
COc1ccc2nc3cc(Cl)ccc3c(NCCCNCCC(C)O)c2c1 (configuration not stated) ... 0.714 µM
N#CC1=C(N)NC(=O)NC12Nc1ccccc1S2 (configuration not stated) ... 4.63 µM
O=[Se](=O)c1ccccc1.O=[Se](=O)c1ccccc1.[Cu] ... 16.8 µM
O=c1[nH]cnc2[nH]ncc12 ... 1330 µM
c1cn2cc(-c3ccc4cn[nH]c4c3)nc(Nc3ccc(N4CCOCC4)cc3)c2n1 ... 10.4 µM
Cc1c(C)[n+](=O)c(C)c(C)n1[O-] ... > 100 µM
S=C1Nc2ccc(Cl)cc2C2(c3ccccc3)N3CCN=C3NN12 (configuration not stated) ... 23.5 µM
C=C1C(=O)O[C@H]2[C@H]1CC/C(COC(=O)NCCc1c[nH]c3ccc(OC)cc13)=C\CC[C@@]1(C)O[C@@H]21 ... 1.91 µM
N#C[S-].[Nd+3].c1ccc(-c2ccccn2)nc1.c1ccc(-c2ccccn2)nc1.c1ccc(-c2ccccn2)nc1 ... 18.5 µM
Cn1cc(-c2cnc3ccc4ccc(CS(=O)(=O)NCc5ccccn5)cc4c(=O)c3c2)cn1 ... 21.3 µM
COc1ccccc1C#Cc1ccccc1C#CCCCCCC#Cc1ccccc1C#Cc1ccccc1OC ... > 100 µM
CCN1c2ccccc2C(Cl)(c2ccc(N(C)C)cc2)c2ccccc21 ... 3.33 µM
COc1cc(/C=C2\CN(C)C/C(=C\c3cc(CN4CCCCC4)c(O)c(OC)c3)C2=O)cc(CN2CCCCC2)c1O ... 5.62 µM
Cc1cc(C)c(O)c(CN(C)Cc2cc(Cl)cc(Cl)c2O)c1 ... 6.13 µM
COc1ccccc1/C=N\N=C(N/N=C/c1ccccc1OC)N/N=C/c1ccccc1OC ... 3.73 µM
CC(=O)O/N=C1/C(c2c(O)[nH]c3cc(Br)ccc23)=Nc2ccccc21 ... 3.48 µM
COc1ccc2c(c1)C(=O)/C(=C/c1ncc([N+](=O)[O-])n1C)O2 ... 0.288 µM
